Target: Human adenosine A2B receptor (Homo sapiens)
Sequence (P29275 whole entry): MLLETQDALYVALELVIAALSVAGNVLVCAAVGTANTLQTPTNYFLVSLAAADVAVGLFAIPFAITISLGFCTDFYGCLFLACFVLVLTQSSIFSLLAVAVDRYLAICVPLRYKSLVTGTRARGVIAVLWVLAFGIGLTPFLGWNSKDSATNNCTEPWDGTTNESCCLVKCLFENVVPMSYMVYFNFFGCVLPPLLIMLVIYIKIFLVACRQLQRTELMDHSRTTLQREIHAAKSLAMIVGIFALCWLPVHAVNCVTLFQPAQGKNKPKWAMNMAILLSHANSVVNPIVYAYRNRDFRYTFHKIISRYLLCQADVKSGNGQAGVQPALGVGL
Experiment: Inhibition of NECA-stimulated cAMP production in A2B receptor expressed cells
Details: CHOK1 cells over-expressing human A2B; 30 nM NECA; in the presence of Ro-20-1724; cAMP enzyme immunoassay; read-out: 50% inhibitory concentration (IC50) for NECA-stimulated cAMP production
measured endpoint: pIC50
Quick note: pIC50 means taking -log10 of the concentration in moles per liter.

[in] // query pIC50 value for entry `Cn1cc(-c2c(O)nc(N)nc2-c2ccco2)ccc1=O`
[out] 7.14
